# system: CELF1 RRM123 (Xenopus, UniProt O57406 1-214+385-489, internal_change)
# Sequence (O57406 other isoform, or with tags, fused parts or gaps): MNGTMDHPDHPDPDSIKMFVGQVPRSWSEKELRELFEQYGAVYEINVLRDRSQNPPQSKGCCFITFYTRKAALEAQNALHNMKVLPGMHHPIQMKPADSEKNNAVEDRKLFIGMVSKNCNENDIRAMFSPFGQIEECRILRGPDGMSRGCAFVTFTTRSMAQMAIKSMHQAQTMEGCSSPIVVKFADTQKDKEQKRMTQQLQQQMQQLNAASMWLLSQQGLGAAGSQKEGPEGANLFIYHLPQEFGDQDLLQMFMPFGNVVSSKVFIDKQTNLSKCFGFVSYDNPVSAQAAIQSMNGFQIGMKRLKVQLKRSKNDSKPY
# assay_comment: ITC; n=0.67; ITC: 25 mM potassium phosphate, 100 mM NaCl, pH 7.0, 25 C, 12.5 uM protein, 125 uM RNA in syringe; NMR: same buffer, 298 K, ~200-250 uM protein
# run_parameters: protein: recombinant; tags: N-terminal His; single strand
pKd: −log10 of the molar value.

binder | pKd
UGUUUUUUGUUUUGU (ssRNA) [EDEN-4U/2U] | 6.01
